system: Huh-7; assay: Cytotoxicity against human Huh-7 cells assessed as reduction in cell viability and measured after 7 days by Celltiter-glo luminescent cell viability assay; assay type: functional, cell-based; conditions: Huh-7, 168 h
pIC50: −log10 of the molar value.
attribute.measured: pIC50

[ask] Item under review: Nc1nccc2c(Br)cc3cc(C(=O)[O-])ccc3c12.[Na+] . Reported pIC50?
[reply] > 6.00

---

biological target: Casein kinase II subunit alpha (Homo sapiens); assay: Inhibition of CSNK2A1(unknown origin) using Ser/Thr 11 as substrate incubated for 60 mins in presence of ATP by Z'-LYTE assay
The following compounds are shown together with reported IC50 values.

[
  {
    "smiles.data": "O=C(O)c1ccc2c(c1)cc(-c1cc[nH]n1)c1ccncc12",
    "IC50": "< 0.3 µM"
  },
  {
    "smiles.data": "CC(C)Nc1cc2cc(C(=O)O)ccc2c2cnccc12",
    "IC50": "< 0.3 µM"
  },
  {
    "smiles.data": "O=C(O)c1ccc2c(c1)cc(Nc1cccc(Cl)c1)c1ccncc12",
    "IC50": "< 0.3 µM"
  }
]

[ask] Consider the compound CC[C@H](C)Nc1cc2cc(C(=O)O)ccc2c2cnccc12 and give its measured IC50.
[reply] < 0.3 µM

[ask] Another compound: O=C(O)c1ccc2c(ccc3ccnc(Cl)c32)c1
[reply] < 0.3 µM

[ask] Follow-up item: O=C(O)c1ccc2c(ccc3ccncc32)c1
[reply] < 0.3 µM

---

test system: HeLa; test: Cytotoxicity against human HeLa cells assessed as reduction in cell viability measured after 7 days by Celltiter-glo luminescent cell viability assay; format: functional, cell-based; details: 168 h
attribute.measured: IC50 (nM)
Respond with the bare value in nM.

[ask] # IC50 lookup, item Nc1nccc2c(Br)cc3cc(C(=O)[O-])ccc3c12.[Na+]
[reply] 1000

---

experiment: Cytotoxicity against human H290 cells assessed as reduction in cell viability and measured after 7 days by Celltiter-glo luminescent cell viability assay; format: functional, cell-based; details: NCI-H290, 168 h
attribute.measured: pIC50
pIC50 field: float, defined as -log10 of concentration (mol/L).

[ask] Record request: pIC50 value, item Nc1nccc2c(Br)cc3cc(C(=O)[O-])ccc3c12.[Na+]
[reply] 6.00

---

system: NCI-H2052; assay: Cytotoxicity against human H2052 cells assessed as reduction in cell viability and measured after 7 days by Celltiter-glo luminescent cell viability assay; assay type: functional, cell-based; details: NCI-H2052, 168 h
attribute.measured: IC50 (nM)
Numeric only. Scale: nM

[ask] Reported IC50 for Nc1nccc2c(Br)cc3cc(C(=O)[O-])ccc3c12.[Na+] : what is it?
[reply] 1000

---

system: A549; experiment: Cytotoxicity against human A549 cells assessed as reduction in cell viability measured after 7 days by Celltiter-glo luminescent cell viability assay; type: functional, cell-based; conditions: A549, 168 h
attribute.measured: IC50 (nM)
Numeric only. Scale: nM

[ask] Can you share its IC50? I mean this compound: Nc1nccc2c(Br)cc3cc(C(=O)[O-])ccc3c12.[Na+]
[reply] 1000

---

Form field: IC50 (one value per entry).
molecular target: Casein kinase II subunit alpha (Homo sapiens, UniProt P68400); experiment: Inhibition of CSNK2A1(unknown origin) using Ser/Thr 11 as substrate incubated for 60 mins in presence of ATP by Z'-LYTE assay
Sequence (P68400 whole entry): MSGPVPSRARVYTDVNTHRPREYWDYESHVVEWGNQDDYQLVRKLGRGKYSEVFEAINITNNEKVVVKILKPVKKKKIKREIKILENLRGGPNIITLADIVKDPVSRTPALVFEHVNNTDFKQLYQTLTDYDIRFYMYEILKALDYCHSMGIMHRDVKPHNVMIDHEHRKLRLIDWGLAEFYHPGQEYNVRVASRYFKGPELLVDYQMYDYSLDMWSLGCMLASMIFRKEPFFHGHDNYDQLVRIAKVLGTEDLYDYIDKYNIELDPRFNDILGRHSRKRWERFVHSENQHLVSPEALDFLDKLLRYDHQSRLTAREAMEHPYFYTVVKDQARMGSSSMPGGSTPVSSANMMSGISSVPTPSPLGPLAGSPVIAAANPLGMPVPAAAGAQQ

[
  {
    "compound": "O=C(O)c1ccc2c(c1)cc(NC1CCC1)c1ccncc12",
    "target.entity": "Casein kinase II subunit alpha (Homo sapiens, UniProt P68400)",
    "IC50": "< 0.3 µM"
  },
  {
    "compound": "CCC(C)Nc1cc2cc(C(=O)O)ccc2c2cnccc12 (centres undefined)",
    "target.entity": "Casein kinase II subunit alpha (Homo sapiens, UniProt P68400)",
    "IC50": "< 0.3 µM"
  },
  {
    "compound": "O=C(O)c1ccc2c(c1)cc(Cl)c1ccncc12",
    "target.entity": "Casein kinase II subunit alpha (Homo sapiens, UniProt P68400)",
    "IC50": "< 0.3 µM"
  },
  {
    "compound": "O=C(O)c1ccc2c(c1)cc(NC1CCCC1)c1ccncc12",
    "target.entity": "Casein kinase II subunit alpha (Homo sapiens, UniProt P68400)",
    "IC50": "< 0.3 µM"
  }
]

[ask] Which IC50 is reported with Casein kinase II subunit alpha (Homo sapiens, UniProt P68400) for this entry: Cc1cc2cc(C(=O)O)ccc2c2cnccc12 ?
[reply] < 0.3 µM

[ask] And for O=C(O)c1ccc2c(c1)cc(NC1CCCCC1)c1ccncc12 ?
[reply] < 0.3 µM

[ask] Proceed to N#Cc1cc2cc(C(=O)O)ccc2c2cnccc12
[reply] < 0.3 µM

[ask] Quick one: O=C(O)c1ccc2c(c1)cc(-c1cccnc1)c1ccncc12
[reply] < 0.3 µM

[ask] What do you get for CC[C@@H](C)Nc1cc2cc(C(=O)O)ccc2c2cnccc12 ?
[reply] < 0.3 µM

---

target: CDK8/Cyclin C (Homo sapiens, UniProt P49336); test: Inhibition of kinase tracer 236 binding to His-tagged CDK8/cyclin C (unknown origin) incubated for 60 mins by LanthaScreen Eu-Kinase binding assay
Sequence (P49336 whole entry): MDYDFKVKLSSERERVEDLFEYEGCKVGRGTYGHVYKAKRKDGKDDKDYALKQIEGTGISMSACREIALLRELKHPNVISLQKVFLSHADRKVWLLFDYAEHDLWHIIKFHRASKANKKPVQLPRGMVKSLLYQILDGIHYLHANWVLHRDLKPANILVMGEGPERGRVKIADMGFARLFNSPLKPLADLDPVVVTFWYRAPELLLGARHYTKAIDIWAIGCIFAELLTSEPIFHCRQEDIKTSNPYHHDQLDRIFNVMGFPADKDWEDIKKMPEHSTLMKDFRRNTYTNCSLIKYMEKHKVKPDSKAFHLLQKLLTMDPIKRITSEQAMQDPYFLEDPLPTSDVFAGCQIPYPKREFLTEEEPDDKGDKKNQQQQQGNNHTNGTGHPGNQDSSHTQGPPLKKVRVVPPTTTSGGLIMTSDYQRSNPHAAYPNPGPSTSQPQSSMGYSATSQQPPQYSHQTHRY
Sequence (P24863 whole entry, further chain): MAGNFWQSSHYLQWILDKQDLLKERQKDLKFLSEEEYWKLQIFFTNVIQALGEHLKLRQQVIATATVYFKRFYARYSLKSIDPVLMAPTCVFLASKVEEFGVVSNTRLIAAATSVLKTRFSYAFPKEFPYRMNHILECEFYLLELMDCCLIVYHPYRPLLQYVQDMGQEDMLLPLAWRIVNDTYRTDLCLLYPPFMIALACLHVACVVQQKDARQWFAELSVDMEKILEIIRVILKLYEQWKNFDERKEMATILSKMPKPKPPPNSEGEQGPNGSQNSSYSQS
attribute.measured: IC50

[ask] So what's the measured IC50 for this one? Nc1nccc2c(Br)cc3cc(C(=O)[O-])ccc3c12.[Na+]
[reply] < 300 nM

---

system: SW-620; assay: Cytotoxicity against human SW620 cells assessed as reduction in cell viability measured after 7 days in presence of glycolysis inhibitor 2-DG by Celltiter-glo luminescent cell viability assay; assay type: functional, cell-based; details: SW-620, 168 h
attribute.measured: IC50

[ask] Any idea what IC50 was measured for Nc1nccc2c(Br)cc3cc(C(=O)[O-])ccc3c12.[Na+] ?
[reply] < 1000 nM

---

test system: OE33; assay: Cytotoxicity against human OE33 cells assessed as reduction in cell viability measured after 7 days by Celltiter-glo luminescent cell viability assay; type: functional, cell-based; conditions: OE33, 168 h
pIC50: −log10 of the molar value.
attribute.measured: pIC50

[ask] # lookup: pIC50 of Nc1nccc2c(Br)cc3cc(C(=O)[O-])ccc3c12.[Na+]
[reply] > 6.00

---

pIC50: −log10 of the molar value.
Entries below carry reported pIC50 on Homeodomain-interacting protein kinase 2 (Homo sapiens).
Sequence (Q9H2X6 whole entry): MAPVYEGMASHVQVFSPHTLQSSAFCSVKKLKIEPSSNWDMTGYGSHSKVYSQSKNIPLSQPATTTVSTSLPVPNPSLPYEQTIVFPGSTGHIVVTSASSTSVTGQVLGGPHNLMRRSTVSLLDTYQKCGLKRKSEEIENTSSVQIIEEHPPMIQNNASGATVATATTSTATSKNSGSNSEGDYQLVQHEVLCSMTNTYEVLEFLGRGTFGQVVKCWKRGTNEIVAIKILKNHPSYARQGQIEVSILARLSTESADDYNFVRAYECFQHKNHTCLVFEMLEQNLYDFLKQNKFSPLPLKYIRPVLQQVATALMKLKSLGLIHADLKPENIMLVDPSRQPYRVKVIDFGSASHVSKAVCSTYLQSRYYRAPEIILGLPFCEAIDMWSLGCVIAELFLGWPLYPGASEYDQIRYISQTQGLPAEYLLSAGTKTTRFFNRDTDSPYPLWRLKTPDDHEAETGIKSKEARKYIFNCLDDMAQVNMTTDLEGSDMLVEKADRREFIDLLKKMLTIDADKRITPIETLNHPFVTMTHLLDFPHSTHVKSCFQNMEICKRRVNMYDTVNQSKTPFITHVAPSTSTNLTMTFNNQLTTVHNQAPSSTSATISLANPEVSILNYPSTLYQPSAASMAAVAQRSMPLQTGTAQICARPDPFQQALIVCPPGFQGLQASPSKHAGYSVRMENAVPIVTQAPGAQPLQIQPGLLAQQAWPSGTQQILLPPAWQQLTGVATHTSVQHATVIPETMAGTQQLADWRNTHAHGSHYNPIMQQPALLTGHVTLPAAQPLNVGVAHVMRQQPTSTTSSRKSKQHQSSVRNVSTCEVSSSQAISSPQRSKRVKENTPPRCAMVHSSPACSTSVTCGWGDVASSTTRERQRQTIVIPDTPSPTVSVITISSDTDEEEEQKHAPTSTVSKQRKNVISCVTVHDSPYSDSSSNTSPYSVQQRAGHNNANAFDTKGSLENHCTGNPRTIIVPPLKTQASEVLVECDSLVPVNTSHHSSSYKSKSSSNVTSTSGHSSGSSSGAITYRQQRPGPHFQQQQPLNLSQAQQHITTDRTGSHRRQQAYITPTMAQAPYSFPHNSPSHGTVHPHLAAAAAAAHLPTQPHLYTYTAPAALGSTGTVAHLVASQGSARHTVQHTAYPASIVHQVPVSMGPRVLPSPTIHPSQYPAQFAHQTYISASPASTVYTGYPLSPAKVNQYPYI

[
  {
    "smiles.data": "Nc1nccc2c(Br)cc3cc(C(=O)[O-])ccc3c12.[Na+]",
    "test.value": "> 6.52"
  },
  {
    "smiles.data": "N[C@@H]1CCCN(c2cc3cc(C(=O)O)ccc3c3cnccc23)C1",
    "test.value": "< 5.30"
  },
  {
    "smiles.data": "CC[C@@H](C)Nc1cc2cc(C(=O)O)ccc2c2cnccc12",
    "test.value": "> 6.52"
  }
]

[ask] Any idea what its pIC50 is? The molecule is O=C(O)c1ccc2c(c1)cc(Br)c1cc(Cl)ncc12
[reply] < 5.30

[ask] Now give it for Nc1nccc2cc(Br)c3cc(C(=O)O)ccc3c12 too.
[reply] > 6.52

Values compiled from ChEMBL document CHEMBL4806958.
